tested on: L6 rat skeletal myoblasts; assay: Cytotoxicity against mammalian control cells; format: cell-based; settings: L6 cell line; read-out: Cytotox. IC50 (in parentheses) (converted)
parameter: IC50 (µM)
Numbers only; they are read as µM.

Below, 2 molecules whose answers are already recorded.
# compound.string, parameter, val
measured = [
    ("CC(=O)OC[C@]1(C)[C@@H](NC(=O)c2ccccc2)CC[C@]23C[C@]24C(=O)C[C@]2(C)[C@@H]([C@H](C)N(C)C)CC[C@@]2(C)[C@@H]4CC[C@@H]13", "IC50", 73),
    ("CC(=O)N[C@@H](C)[C@H]1CC[C@@]2(C)[C@@H]3CC[C@@H]4C(=CC3=CC[C@]12C)CC[C@H](N(C)C)C4(C)C", "IC50", 129),
]

For the next question, use this molecule.
Given the molecule "C[C@@H]([C@H]1CC[C@H]2[C@@H]3CC=C4C[C@@H](O)CC[C@]4(C)[C@H]3CC[C@]12C)N(C)C" , what is its reported IC50?
38.8

---

Quick reference for IC50 among some compounds
system: L6 rat skeletal myoblasts; experiment: Cytotoxicity against mammalian control cells; format: cell-based; conditions: L6 cell line; read-out: Cytotox. IC50 (in parentheses) (converted)
Numbers only; they are read as µM.

# compound, test.target, IC50 [µM]
measured = [
    ("CC(C1C(OC(=O)c2ccccc2)CC2(C)C3C=CC4C(C)(CO)C(N(C)C)CCC45CC35CCC12C)N(C)C (stereo not drawn) [Compound 6, Cyclomicrophyllidine-A]", "L6 rat skeletal myoblasts", 17),
]

Given the compound CC(=O)O[C@@H]1C[C@@]2(C)[C@@H]3CC[C@@H]4C(=CC3=CC[C@]2(C)[C@H]1[C@H](C)NC(=O)c1ccccc1)CC[C@H](N(C)C)C4(C)C [Compound 22, N-benzoyl-O-acetylbuxodienine-E] , what is its reported IC50?
15.6

Given the compound CC(C1C(O)CC2(C)C3C=CC4C(C)(CO)C(N(C)C)CCC45CC35CCC12C)N(C)C (stereo not drawn) [Compound 5, Cyclomicrophylline-A] , what is its reported IC50?
99

---

test system: L6 rat skeletal myoblasts; test: Cytotoxicity against mammalian control cells; format: cell-based; settings: L6 cell line; read-out: Cytotox. IC50 (in parentheses) (converted)
Quick reference for IC50 among some compounds
Numbers only; they are read as µM.

# compound, test.target, IC50, µM
rows = [
    ("CC(=O)[C@H]1[C@H](O)C[C@@]2(C)[C@@H]3CC[C@@H]4C(=CC3=CC[C@]12C)CC[C@H](N(C)C)C4(C)C [Compound 20, 16-α-hydroxybuxaminone]", "L6 rat skeletal myoblasts", 113),
    ("C=C1[C@@H](N(C)C)CC[C@]23C[C@]24CC[C@]2(C)[C@@H](C(C)=O)[C@H](O)C[C@@]2(C)[C@@H]4CC[C@@H]13", "L6 rat skeletal myoblasts", 69.6),
]

For the next question, use this compound.
Given the compound "C[C@@H]([C@H]1[C@H](O)C[C@@]2(C)[C@@H]3CC[C@H]4C(C)(C)C(=O)C=C[C@@]45C[C@@]35CC[C@]12C)N(C)C" , what is its reported IC50?
47.6

---

system: Trypanosoma brucei rhodesiense (Tbr) (bloodstream trypomastigotes, STIB 900 strain); assay: In vitro antitrypanosomal activity; assay type: cell-based; conditions: Trypanosoma brucei, read-out: Tbr IC50 (in parentheses)
parameter: pIC50
Would you please state pIC50, meaning minus log10 of the concentration in mol/L, as a bare number?

Given the compound Nc1nc(N)nc(Nc2ccc([As]3SCC(CO)S3)cc2)n1 (stereo not shown) [Melarsoprol, reference compound] , what is its reported pIC50?
7.89
